test system: Staphylococcus aureus; experiment: Potentiation of norfloxacin-induced antibacterial activity against clinical isolates of methicillin-resistant Staphylococcus aureus P4629 assessed as reduction in norfloxacin MIC by checkerboard assay relative to control; type: functional; note: test concentration or dose not given here
Please provide measured fold change (FC) for the entries that follow.
Would you mind answering with just the numeric figure?

input: State the recorded fold change (FC) for this entry: COc1ccc([C@@H]2COc3c(cc(/C=C/C(=O)c4ccc(OC)c(OC)c4)c4c3C=CC(C)(C)O4)C2)c(OC)c1
output: 8

input: State the recorded fold change (FC) for this entry: COc1ccc([C@@H]2COc3c(cc(/C=C/C(=O)c4ccco4)c4c3C=CC(C)(C)O4)C2)c(OC)c1
output: 4

input: State the recorded fold change (FC) for this entry: CC1(C)C=Cc2c(ccc3c2OC[C@@H](c2ccc(O)cc2O)C3)O1
output: 4

input: State the recorded fold change (FC) for this entry: COc1cc(OC)c([C@@H]2COc3c(cc(/C=C/C(=O)c4ccc(OC)c(OC)c4)c4c3C=CC(C)(C)O4)C2)cc1/C=C/C(=O)c1ccc(OC)c(OC)c1
output: 4

input: State the recorded fold change (FC) for this entry: COc1cc(OC)c([C@@H]2COc3c(cc(/C=C/C(=O)c4ccco4)c4c3C=CC(C)(C)O4)C2)cc1/C=C/C(=O)c1ccco1
output: 16

The reported measurements were obtained from ChEMBL document CHEMBL3797055.
